- assayName: MTT cytotoxicity assay on HEK cells
- Assay type: cell-based
- conditionLabel: human, HEK (human embryonic kidney) cells, compared to DMSO control, read-out: cell viability
Lab note: anything with viability at 24 h, 0.5 mg/mL below 70% is marked Yes; values at 70% or higher are marked No.

| compound | categoryLabel |
| --- | --- |
| O=C(CSc1nc[nH]n1)N(/N=C/c1ccccc1F)c1ccccc1 | No |
| COc1cc(/C=N/N(C(=O)CSc2nc[nH]n2)c2ccccc2)cc(OC)c1OC | Yes |
| O=C(CSc1nc[nH]n1)N(/N=C/c1cccs1)c1ccccc1 | Yes |
| O=C(CSc1nc[nH]n1)N(/N=C/c1ccc(Br)cc1)c1ccccc1 | No |
| O=C(CSc1nc[nH]n1)N(/N=C/c1cccc(Br)c1)c1ccccc1 | No |
| O=C(CSc1nc[nH]n1)N(/N=C/c1ccccc1)c1ccccc1 | No |

Where do the numbers come from? From paper PMC12732608.
